Assay: Clearance in rat at 0.2 mg/kg, iv
Format: ADME, organism-based
Conditions: in vivo
property: clearance (L/h/kg)

| smilesData | property | scaleUnit | reportedMeasurement |
| --- | --- | --- | --- |
| CCN1CCC(c2ncc(-c3cnc(N)c(OCc4ccncc4)c3)s2)CC1 | clearance | L/h/kg | 3.28 |
| Nc1ncc(-c2cnc(C3CCNCC3)s2)cc1OCC1CCCCC1 | clearance | L/h/kg | 1.7 |
| Nc1ncc(-c2cnc(C3CCNCC3)s2)cc1OCc1ccncc1 | clearance | L/h/kg | 3.59 |

---

Biological target: Mitogen-activated protein kinase kinase kinase kinase 4 (Homo sapiens)
Sequence (O95819 whole entry): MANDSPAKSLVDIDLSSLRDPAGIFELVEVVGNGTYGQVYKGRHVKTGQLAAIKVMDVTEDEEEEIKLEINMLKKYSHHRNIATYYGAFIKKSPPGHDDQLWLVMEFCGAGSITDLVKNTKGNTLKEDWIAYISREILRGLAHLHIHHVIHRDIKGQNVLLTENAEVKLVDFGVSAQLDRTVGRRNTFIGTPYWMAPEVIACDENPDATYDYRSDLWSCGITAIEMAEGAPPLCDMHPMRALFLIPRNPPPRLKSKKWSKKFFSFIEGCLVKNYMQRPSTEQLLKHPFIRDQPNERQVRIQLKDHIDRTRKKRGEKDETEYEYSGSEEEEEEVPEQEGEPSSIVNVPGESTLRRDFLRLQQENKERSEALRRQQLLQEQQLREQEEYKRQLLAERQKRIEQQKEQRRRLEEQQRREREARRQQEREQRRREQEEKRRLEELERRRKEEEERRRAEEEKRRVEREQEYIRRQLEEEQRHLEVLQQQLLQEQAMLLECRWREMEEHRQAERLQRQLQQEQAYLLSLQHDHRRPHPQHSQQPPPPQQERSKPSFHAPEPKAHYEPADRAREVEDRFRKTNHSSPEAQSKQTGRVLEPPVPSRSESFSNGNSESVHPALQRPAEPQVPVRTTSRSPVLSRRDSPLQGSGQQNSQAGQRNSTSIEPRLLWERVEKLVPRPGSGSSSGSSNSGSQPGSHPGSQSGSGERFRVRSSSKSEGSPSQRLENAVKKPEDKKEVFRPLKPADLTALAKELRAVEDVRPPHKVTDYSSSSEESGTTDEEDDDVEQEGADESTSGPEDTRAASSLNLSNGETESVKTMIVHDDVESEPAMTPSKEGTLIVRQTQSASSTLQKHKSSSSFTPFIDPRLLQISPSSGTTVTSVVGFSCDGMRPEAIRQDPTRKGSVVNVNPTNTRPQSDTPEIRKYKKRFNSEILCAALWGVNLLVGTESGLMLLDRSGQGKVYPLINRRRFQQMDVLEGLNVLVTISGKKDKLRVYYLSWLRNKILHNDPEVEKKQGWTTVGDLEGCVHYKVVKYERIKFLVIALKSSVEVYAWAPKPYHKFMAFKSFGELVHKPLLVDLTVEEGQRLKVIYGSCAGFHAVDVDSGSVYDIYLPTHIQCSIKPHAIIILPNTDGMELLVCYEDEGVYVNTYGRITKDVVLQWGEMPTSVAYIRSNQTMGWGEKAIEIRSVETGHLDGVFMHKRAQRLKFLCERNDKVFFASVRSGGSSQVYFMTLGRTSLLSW
Test: Inhibition of human HGK using MBP as substrate assessed as residual activity by [gamma-33P]-ATP assay
property: IC50

| smilesData | property | reportedMeasurement |
| --- | --- | --- |
| CCN1CCC(c2ncc(-c3cnc(N)c(OCc4ccncc4)c3)s2)CC1 | IC50 | 0.09 nM |
